Provide the recorded IC50 at 72 h for the entries that follow.
test: Cytotoxicity against African green monkey Vero cells assessed as reduction in cell viability incubated for 72 hrs by alamar blue staining based fluorescence microplate reader analysis
Type: toxicity
test-conditions: African green monkey (Chlorocebus sabaeus)

Use the examples below as a reference point.
c1ccc(-c2ccc(-c3ccnc(CN4CCC5(CCCC5)CC4)c3)cc2)cc1 ... 16 µg/mL
C[Si]1(C)CCN(Cc2cc(-c3ccc(-c4ccccc4)cc3)ccn2)CC1 ... ≥ 32 µg/mL
CC(C)Cc1ccc(-c2ccnc(CN3CC[Si](C)(C)CC3)c2)cc1 ... ≥ 32 µg/mL
CC(C)c1ccc(-c2ccnc(CNC3CCCCCCC3)c2)cc1 ... 16 µg/mL
CC(C)Cc1ccc(-c2ccnc(CN3CCC(C)CC3)c2)cc1 ... ≥ 32 µg/mL

Name the recorded IC50 at 72 h for "CC(C)c1ccc(-c2nc(CN3CC[Si](C)(C)CC3)co2)cc1" . ≥ 32 µg/mL

---

Test system: Mycobacterium tuberculosis
test: Antimycobacterial activity against drug susceptible Mycobacterium tuberculosis V4207 assessed as bacterial growth inhibition incubated for 7 to 14 days by MABA assay
Format: functional
test-conditions: Mycobacterium tuberculosis, V4207; time 7-14 day; read-out: MIC90
readout-label: MIC90 (µg/mL)
Numbers only, in µg/mL.

Use the examples below as a reference point.
CO[C@H]1/C=C/O[C@@]2(C)Oc3c(C)c(O)c4c(O)c(c(/C=N/N5CCN(C)CC5)c(O)c4c3C2=O)NC(=O)/C(C)=C\C=C\[C@H](C)[C@H](O)[C@@H](C)[C@@H](O)[C@@H](C)[C@H](OC(C)=O)[C@@H]1C ... 0.063
CC1COc2c(N3CCN(C)CC3)c(F)cc3c(=O)c(C(=O)O)cn1c23 (centres undefined) ... 0.5
NC[C@H]1O[C@H](O[C@H]2[C@H](O)[C@@H](O[C@H]3O[C@H](CO)[C@@H](O)[C@H](N)[C@H]3O)[C@H](N)C[C@@H]2N)[C@H](O)[C@@H](O)[C@@H]1O ... 2

Name the recorded MIC90 for C[C@H]1COc2c(N3CCN(C)CC3)c(F)cc3c(=O)c(C(=O)O)cn1c23 [LEVOFLOXACIN ANHYDROUS] . 0.125

---

Provide the recorded IC50 at 72 h for the entries that follow.
test: Cytotoxicity against African green monkey Vero cells assessed as reduction in cell viability incubated for 72 hrs by alamar blue staining based fluorescence microplate reader analysis
Assay type: toxicity
test-conditions: African green monkey (Chlorocebus sabaeus)

Clc1ccc(-c2ccc(-c3ccnc(CN4CCC5(CCCC5)CC4)c3)cc2)cc1 ... ≥ 32 µg/mL
CC(C)c1ccc(-c2ccnc(CN3CCC4(CC3)OCCCO4)c2)cc1 ... ≥ 32 µg/mL
CC(C)c1ccc(-c2cncc(CN3CC[Si](C)(C)CC3)c2)cc1 ... ≥ 32 µg/mL
CC(C)c1ccc(-c2ccnc(CN3CC[Si](C)(C)CC3)c2)cc1 ... ≥ 32 µg/mL
CC(C)c1ccc(-c2ccnc(CNC34CC5CC(CC(C5)C3)C4)c2)cc1 ... 16 µg/mL

Quick one: give me IC50 at 72 h for each item below, same order please.
1. CC(C)(C)c1ccc(-c2ccnc(CN3CC[Si](C)(C)CC3)c2)cc1
2. CC(C)c1ccc(-c2ccnc(CNC3C4CC5CC(C4)CC3C5)c2)cc1 (stereo unspecified)
3. c1ccc(-c2ccc(-c3ccnc(CN4CCC5(CCCCC5)CC4)c3)cc2)cc1

1. 16 µg/mL
2. ≥ 32 µg/mL
3. ≥ 32 µg/mL
